Biological target: Alpha-2A adrenergic receptor (Homo sapiens, UniProt P08913)
Sequence (P08913 whole entry): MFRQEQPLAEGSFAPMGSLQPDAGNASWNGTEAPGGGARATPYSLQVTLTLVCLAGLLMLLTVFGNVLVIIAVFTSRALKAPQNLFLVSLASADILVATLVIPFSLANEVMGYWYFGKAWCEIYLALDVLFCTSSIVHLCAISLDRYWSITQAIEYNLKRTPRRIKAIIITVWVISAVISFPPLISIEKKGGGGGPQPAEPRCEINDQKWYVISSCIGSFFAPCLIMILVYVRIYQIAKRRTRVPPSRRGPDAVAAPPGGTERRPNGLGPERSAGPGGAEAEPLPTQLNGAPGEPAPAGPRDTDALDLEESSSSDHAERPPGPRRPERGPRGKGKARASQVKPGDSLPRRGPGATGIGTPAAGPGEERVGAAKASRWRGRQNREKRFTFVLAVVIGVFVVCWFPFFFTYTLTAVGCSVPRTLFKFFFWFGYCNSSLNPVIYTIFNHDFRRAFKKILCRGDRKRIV

[
  {
    "SAMPLE SMILES": "COc1ccccc1N1CCN(CCCNC(=O)NN(Cc2ccccc2)c2ccccc2)CC1",
    "Ki / nM": 400
  }
]

###

species on record: Homo sapiens; experiment: Selectivity index, ratio of Ki for displacement of [3H] Spiperone from human D2L receptor expressed in CHO cells to Ki for displacement of [3H] Spiperone from human D4.4 receptor expressed in CHO cells; format: cell-based
# Lookup of reported Ratio Ki keyed by entry

[
  {
    "SAMPLE SMILES": "O=C(NCCCN1CCN(c2ncccn2)CC1)NN(Cc1ccccc1)c1ccccc1",
    "Ratio Ki": 32
  },
  {
    "SAMPLE SMILES": "COc1ccccc1N1CCN(CCCNC(=O)NN(Cc2ccccc2)c2ccc(F)cc2)CC1",
    "Ratio Ki": 12
  },
  {
    "SAMPLE SMILES": "O=C(NCCCN1CCN(c2ccc(Cl)cc2)CC1)NN(Cc1ccccc1)c1ccccc1",
    "Ratio Ki": 66
  },
  {
    "SAMPLE SMILES": "COc1ccc(N(Cc2cccc(F)c2)NC(=O)NCCCN2CCN(c3ccccc3OC)CC2)cc1",
    "Ratio Ki": 10
  },
  {
    "SAMPLE SMILES": "COc1ccccc1N1CCN(CCNC(=O)NN(Cc2ccccc2)c2ccc(F)cc2)CC1",
    "Ratio Ki": 11
  },
  {
    "SAMPLE SMILES": "COc1ccccc1N1CCN(CCCCNC(=O)/N=N/c2ccc(F)cc2)CC1",
    "Ratio Ki": 0.4
  },
  {
    "SAMPLE SMILES": "COc1ccccc1N1CCN(CCCNC(=O)NN(Cc2ccccc2F)c2ccc(F)cc2)CC1",
    "Ratio Ki": 26
  },
  {
    "SAMPLE SMILES": "COc1ccccc1N1CCN(CCCNC(=O)NN(Cc2ccccc2F)c2ccc(Cl)cc2)CC1",
    "Ratio Ki": 16
  },
  {
    "SAMPLE SMILES": "COc1ccccc1N1CCN(CCCNC(=O)NN(Cc2ccccc2F)c2ccc(Br)cc2)CC1",
    "Ratio Ki": 14
  },
  {
    "SAMPLE SMILES": "COc1ccc(N(Cc2ccc(C#N)cc2)NC(=O)NCCCN2CCN(c3ccccc3OC)CC2)cc1",
    "Ratio Ki": 16
  },
  {
    "SAMPLE SMILES": "C=C(C)CN(NC(=O)NCCCN1CCN(c2ccccc2OC)CC1)c1ccc(OC)cc1",
    "Ratio Ki": 3.3
  }
]

###

pKi: −log10 of the molar value.
What follows is a collection of pKi values obtained with UniProtKB P35372.
Sequence (P35372 whole entry): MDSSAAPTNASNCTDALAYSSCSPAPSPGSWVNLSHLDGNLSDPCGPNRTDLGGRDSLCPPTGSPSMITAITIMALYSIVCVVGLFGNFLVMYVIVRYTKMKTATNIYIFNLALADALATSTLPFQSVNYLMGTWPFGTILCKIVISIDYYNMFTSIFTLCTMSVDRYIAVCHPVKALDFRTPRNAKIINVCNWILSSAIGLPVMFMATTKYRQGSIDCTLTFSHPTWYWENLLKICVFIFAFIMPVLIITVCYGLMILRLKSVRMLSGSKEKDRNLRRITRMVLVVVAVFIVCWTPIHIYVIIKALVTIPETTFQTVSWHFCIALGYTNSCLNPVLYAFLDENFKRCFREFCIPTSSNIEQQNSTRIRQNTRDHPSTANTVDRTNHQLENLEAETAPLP
READOUT NAME: pKi

[
  {
    "SAMPLE SMILES": "COc1ccccc1N1CCN(CCCNC(=O)NN(Cc2ccc(F)cc2)c2ccccc2)CC1",
    "TARGET OR TEST SYSTEM": "UniProtKB P35372",
    "READOUT NAME": "pKi",
    "VALUE REPORTED": 5.64
  },
  {
    "SAMPLE SMILES": "COc1ccccc1N1CCN(CCCNC(=O)NN(Cc2ccccc2)c2ccccc2)CC1",
    "TARGET OR TEST SYSTEM": "UniProtKB P35372",
    "READOUT NAME": "pKi",
    "VALUE REPORTED": 5.70
  }
]

###

# Lookup of reported log10(Ki) keyed by entry
target: D(2) dopamine receptor (Homo sapiens, UniProt P14416); test: Displacement of [3H] Spiperone from human D2S receptor expressed in CHO cells by competitive radioligand binding assay; assay type: cell-based
Sequence (P14416 whole entry): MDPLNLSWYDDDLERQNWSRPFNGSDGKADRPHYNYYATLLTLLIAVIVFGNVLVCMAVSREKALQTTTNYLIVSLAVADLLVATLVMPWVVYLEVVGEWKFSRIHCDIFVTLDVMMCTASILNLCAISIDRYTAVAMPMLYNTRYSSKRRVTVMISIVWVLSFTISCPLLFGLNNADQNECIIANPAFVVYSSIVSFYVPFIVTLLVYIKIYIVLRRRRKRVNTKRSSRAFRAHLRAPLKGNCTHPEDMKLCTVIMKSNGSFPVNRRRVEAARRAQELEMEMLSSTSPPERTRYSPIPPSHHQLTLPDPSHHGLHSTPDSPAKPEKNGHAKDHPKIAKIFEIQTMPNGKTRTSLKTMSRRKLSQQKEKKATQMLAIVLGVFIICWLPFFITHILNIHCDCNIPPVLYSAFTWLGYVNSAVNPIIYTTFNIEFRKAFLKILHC
READOUT NAME: log10(Ki) (log10 of the value in µM)

[
  {
    "MOLECULE": "COc1ccccc1N1CCN(CCCNC(=O)NN(Cc2ccc(F)cc2)c2ccccc2)CC1",
    "VALUE REPORTED": -0.96
  },
  {
    "MOLECULE": "O=C(NCCCN1CCN(c2ccc(Cl)cc2)CC1)NN(Cc1ccc(F)cc1)c1ccccc1",
    "VALUE REPORTED": -0.42
  },
  {
    "MOLECULE": "COc1ccccc1N1CCN(CCCNC(=O)NN(Cc2cccc(F)c2)c2ccc(F)cc2)CC1",
    "VALUE REPORTED": -1.34
  },
  {
    "MOLECULE": "COc1ccccc1N1CCN(CCCNC(=O)NN(Cc2ccccc2)c2ccccc2)CC1",
    "VALUE REPORTED": -1.14
  },
  {
    "MOLECULE": "Cc1cccc(C(=O)NCN2CCN(c3ccccc3C#N)CC2)c1 [PD-168,077]",
    "VALUE REPORTED": 0.04
  },
  {
    "MOLECULE": "C=CCN(NC(=O)NCCCN1CCN(c2ccccc2OC)CC1)c1ccc(OC)cc1",
    "VALUE REPORTED": -0.47
  },
  {
    "MOLECULE": "COc1ccccc1N1CCN(CCCNC(=O)NN(Cc2ccc(-c3ccccc3)cc2)c2ccc(F)cc2)CC1",
    "VALUE REPORTED": -1.38
  },
  {
    "MOLECULE": "COc1ccccc1N1CCN(CCNC(=O)NN(Cc2ccccc2)c2ccc(F)cc2)CC1",
    "VALUE REPORTED": -1.15
  },
  {
    "MOLECULE": "COc1cccc(CN(NC(=O)NCCCN2CCN(c3ccccc3OC)CC2)c2ccc(F)cc2)c1",
    "VALUE REPORTED": -1.21
  },
  {
    "MOLECULE": "COc1ccc(N(Cc2ccccc2)NC(=O)NCCCN2CCN(c3ccccc3OC)CC2)cc1",
    "VALUE REPORTED": -1.72
  },
  {
    "MOLECULE": "COc1ccc(N(Cc2ccccc2F)NC(=O)NCCCN2CCN(c3ccccc3OC)CC2)cc1",
    "VALUE REPORTED": -1.72
  },
  {
    "MOLECULE": "COc1ccccc1N1CCN(CCCNC(=O)NN(Cc2ccc(C#N)cc2)c2ccc(F)cc2)CC1",
    "VALUE REPORTED": -0.92
  },
  {
    "MOLECULE": "O=C(NCCCN1CCN(c2ccc(Br)cc2)CC1)NN(Cc1ccc(F)cc1)c1ccccc1",
    "VALUE REPORTED": -0.21
  },
  {
    "MOLECULE": "COc1ccccc1N1CCN(CCCNC(=O)NN(Cc2ccccc2F)c2ccc(F)cc2)CC1",
    "VALUE REPORTED": -1.33
  },
  {
    "MOLECULE": "COc1ccccc1N1CCN(CCCNC(=O)NN(Cc2ccccc2F)c2ccc(Br)cc2)CC1",
    "VALUE REPORTED": -1.66
  },
  {
    "MOLECULE": "COc1ccccc1N1CCN(CCCNC(=O)NN(Cc2ccccc2)c2ccc(Br)cc2)CC1",
    "VALUE REPORTED": -1.47
  },
  {
    "MOLECULE": "COc1ccccc1N1CCN(CCCNC(=O)NN(Cc2ccccc2)c2ccc(Cl)cc2)CC1",
    "VALUE REPORTED": -1.64
  },
  {
    "MOLECULE": "COc1ccccc1N1CCN(CCCNC(=O)/N=N/c2ccc(F)cc2)CC1",
    "VALUE REPORTED": -1.29
  },
  {
    "MOLECULE": "COc1ccc(N(Cc2cccc(F)c2)NC(=O)NCCCN2CCN(c3ccccc3OC)CC2)cc1",
    "VALUE REPORTED": -1.46
  },
  {
    "MOLECULE": "COc1ccc(N(Cc2ccc(C#N)cc2)NC(=O)NCCCN2CCN(c3ccccc3OC)CC2)cc1",
    "VALUE REPORTED": -0.96
  },
  {
    "MOLECULE": "COc1ccccc1N1CCN(CCCNC(=O)NN(Cc2ccccc2F)c2ccc(Cl)cc2)CC1",
    "VALUE REPORTED": -1.59
  },
  {
    "MOLECULE": "COc1ccc(N(Cc2ccc(F)cc2)NC(=O)NCCCN2CCN(c3ccccc3OC)CC2)cc1",
    "VALUE REPORTED": -0.96
  },
  {
    "MOLECULE": "COc1ccc(N(Cc2cccc(OC)c2)NC(=O)NCCCN2CCN(c3ccccc3OC)CC2)cc1",
    "VALUE REPORTED": -0.96
  },
  {
    "MOLECULE": "COc1ccccc1N1CCN(CCNC(=O)/N=N/c2ccc(F)cc2)CC1",
    "VALUE REPORTED": -0.85
  },
  {
    "MOLECULE": "COc1ccccc1N1CCN(CCCNC(=O)NN(Cc2ccc(F)cc2)c2ccc(F)cc2)CC1",
    "VALUE REPORTED": -1.52
  },
  {
    "MOLECULE": "COc1ccccc1N1CCN(CCCNC(=O)NN(Cc2ccc(C#N)cc2)c2ccc(Cl)cc2Cl)CC1",
    "VALUE REPORTED": -1.03
  },
  {
    "MOLECULE": "O=C(NCCCN1CCN(c2ccc(Cl)cc2)CC1)NN(Cc1ccccc1)c1ccccc1",
    "VALUE REPORTED": -0.39
  },
  {
    "MOLECULE": "C=C(C)CN(NC(=O)NCCCN1CCN(c2ccccc2OC)CC1)c1ccc(OC)cc1",
    "VALUE REPORTED": -0.52
  },
  {
    "MOLECULE": "COc1ccccc1N1CCN(CCCNC(=O)NN(Cc2ccccc2)c2ccc(F)cc2)CC1",
    "VALUE REPORTED": -2.37
  },
  {
    "MOLECULE": "O=C(NCCCN1CCN(c2ncccn2)CC1)NN(Cc1ccc(F)cc1)c1ccccc1",
    "VALUE REPORTED": -0.51
  },
  {
    "MOLECULE": "O=C(NCCCN1CCN(c2ccc(I)cc2)CC1)NN(Cc1ccccc1)c1ccccc1",
    "VALUE REPORTED": -0.17
  },
  {
    "MOLECULE": "COc1ccccc1N1CCN(CCCCNC(=O)NN(Cc2ccccc2)c2ccc(F)cc2)CC1",
    "VALUE REPORTED": -1.03
  },
  {
    "MOLECULE": "O=C(NCCN1CCN(c2ccc(I)cc2)CC1)NN(Cc1ccccc1)c1ccccc1",
    "VALUE REPORTED": -0.29
  },
  {
    "MOLECULE": "O=C(NCCN1CCN(c2ccc(Br)cc2)CC1)NN(Cc1ccccc1)c1ccccc1",
    "VALUE REPORTED": -0.37
  },
  {
    "MOLECULE": "COc1ccccc1N1CCN(CCCNC(=O)NN(Cc2ccccc2)c2ccc(Cl)cc2Cl)CC1",
    "VALUE REPORTED": -1.62
  },
  {
    "MOLECULE": "O=C(NCCCN1CCN(c2ncccn2)CC1)NN(Cc1ccccc1)c1ccccc1",
    "VALUE REPORTED": -0.36
  }
]

The reported numbers originate from ChEMBL document CHEMBL4321823.
